- System: HeLa S3 cells (human cervical epithelioid carcinoma)
- Assay Comment: Trypan blue exclusion assay, cytostatic activity, HeLa S3
- Format: cell-based
- Condition Summary: incubation 24h, 3 experiments, read-out: ID50 (the source's name)
Observed Property: IC50 (nM)
Use nM as the unit, but write only the number.

Query IC50 for CC(C)CCC1=C(O)C(C(=O)C(C)C)=C(O)C(CCC(C)C)(CCC(C)C)C1=O [HHC, hexahydrocolupulone]
1210

* * *

- Tested on: CEM vinblastin resistant cells
- Assay Comment: Trypan blue exclusion assay, cytostatic activity, CEM vinblastin resistant
- Assay type: cell-based
- Condition Summary: Homo sapiens; CEM vin resistant; incubation 48h; 4 experiments; read-out: ID50 (the source's name)
Observed Property: pIC50
Keep in mind that pIC50 stands for -log10 of concentration in molar terms.

Using known records, supply pIC50 for CC(C)CCC1=C(O)C(C(=O)C(C)C)=C(O)C(CCC(C)C)(CCC(C)C)C1=O [HHC, hexahydrocolupulone]
5.58
